- Test system: MCF7
- testDetails: Cytotoxicity against human MCF7 cells assessed as inhibition of cell proliferation after 3 days by radioactive thymidine incorporation assay
- Format: functional, cell-based
- appliedConditions: MCF7, 72 h
pEC50: −log10 of the molar value.

compoundStructure: CC1(C)CC[C@]2(C(=O)O)CC[C@]3(C)[C@H](C(=O)C=C4[C@@]5(C)C=C(C#N)C(=O)C(C)(C)[C@@H]5CC[C@]43C)[C@@H]2C1
pEC50: 6.80
